Values were extracted from patent US20170216252A1.

system.name: MRSA PK (Staphylococcus aureus, UniProt Q6GG09)
Construct: His tag (pET-28a(+) vector) (N); made in house; host or cells: E. coli BL-21 (DE3)
Sequence (Q6GG09 whole entry): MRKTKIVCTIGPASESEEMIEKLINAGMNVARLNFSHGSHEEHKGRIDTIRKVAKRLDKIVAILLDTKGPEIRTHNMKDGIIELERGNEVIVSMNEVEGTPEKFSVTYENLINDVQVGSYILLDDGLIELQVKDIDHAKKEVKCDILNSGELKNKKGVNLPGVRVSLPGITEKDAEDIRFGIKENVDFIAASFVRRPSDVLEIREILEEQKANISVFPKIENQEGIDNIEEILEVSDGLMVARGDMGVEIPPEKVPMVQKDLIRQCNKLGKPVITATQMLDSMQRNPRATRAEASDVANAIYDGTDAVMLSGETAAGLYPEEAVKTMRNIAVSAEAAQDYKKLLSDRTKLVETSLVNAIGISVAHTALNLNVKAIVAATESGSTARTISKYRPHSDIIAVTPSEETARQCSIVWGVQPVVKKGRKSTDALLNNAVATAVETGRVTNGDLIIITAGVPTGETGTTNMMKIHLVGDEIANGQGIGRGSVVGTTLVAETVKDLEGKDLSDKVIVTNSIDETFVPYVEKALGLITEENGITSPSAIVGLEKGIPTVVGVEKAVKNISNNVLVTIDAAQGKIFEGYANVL
run.description: MRSA PK activity, continuous LDH-coupled assay
Format: biochemical, S. aureus (MRSA strain Sanger 252)
pIC50: −log10 of the molar value.
Task for the reader: assign each of the following molecules its reported pIC50.

Q: Give the reported value of pIC50 for this record: `CC(=O)c1c(-c2cc3ccccc3[nH]2)[nH]c2cc(Br)ccc12`
A: 8.11

Q: Give the reported value of pIC50 for this record: `Clc1ccc(C#Cc2cc3ccc(Br)cc3[nH]2)nc1`
A: 6.00 to 7.00

Q: Give the reported value of pIC50 for this record: CC(=O)c1c(/C=C/c2ccccc2)[nH]c2cc(Br)ccc12 [Compound 38a]
A: < 4.70

Q: Give the reported value of pIC50 for this record: `COc1ccc(Br)cc1C(=O)Nc1nc2ccc(Br)cc2s1`
A: 8.08

Q: Give the reported value of pIC50 for this record: `O=C(Nc1nc2ccc(Br)cc2[nH]1)c1cc2cc(Br)ccc2[nH]1`
A: 8.46

Q: Give the reported value of pIC50 for this record: `O=C(Nc1nc2ccc(Br)cc2s1)c1cc(Br)cc(Br)c1O`
A: 8.39

Q: Give the reported value of pIC50 for this record: `Brc1cncc(CCc2cc3ccc(Br)cc3[nH]2)c1`
A: < 6.00

Q: Give the reported value of pIC50 for this record: `O=C(c1c(-c2cc3ccccc3[nH]2)[nH]c2cc(Br)ccc12)C(F)(F)F`
A: < 6.00

Q: Give the reported value of pIC50 for this record: `O=C(Nc1nc2ccc(Br)cc2[nH]1)c1cc2ccc(Br)cc2[nH]1`
A: 8.82

Q: Give the reported value of pIC50 for this record: `Clc1cc(Cl)cc(/C=C/c2cc3ccc(Br)cc3[nH]2)c1`
A: > 7.30

Q: Give the reported value of pIC50 for this record: `O=C(c1c(CCc2ccc(Cl)nc2)[nH]c2cc(Br)ccc12)C(F)(F)F`
A: < 6.00

Q: Give the reported value of pIC50 for this record: `[N-]=[N+]=Nc1ccc(-c2cc3ccc(Br)cc3[nH]2)cc1`
A: 7.39

Q: Give the reported value of pIC50 for this record: `O=C(Nc1ccc(Cl)cc1)c1cc2ccc(Br)cc2[nH]1`
A: 7.77

Q: Give the reported value of pIC50 for this record: `O=C(Nc1nc2ccc(Br)cc2s1)c1cc2cc(Br)ccc2[nH]1`
A: 7.65

Q: Give the reported value of pIC50 for this record: `Brc1ccc2cc(CSCc3ccccc3)[nH]c2c1`
A: < 6.00

Q: Give the reported value of pIC50 for this record: `COC(=O)c1c(-c2cc3ccc(Br)cc3[nH]2)[nH]c2ccccc12`
A: 8.62

Q: Give the reported value of pIC50 for this record: `COC(=O)c1c(C(=O)Nc2ccc(Cl)cc2)[nH]c2cc(Br)ccc12`
A: > 7.30

Q: Give the reported value of pIC50 for this record: `O=C(Nc1ccc(Cl)nc1)c1[nH]c2cc(Br)ccc2c1C(=O)O`
A: 7.00 to 7.30

Q: Give the reported value of pIC50 for this record: `Cc1ccc(/C=C/c2cc3ccc(Br)cc3[nH]2)o1`
A: < 6.00

Q: Give the reported value of pIC50 for this record: `O=C(c1c(-c2cc3cc(Cl)ccc3[nH]2)[nH]c2cc(Br)ccc12)C(F)(F)F`
A: > 7.30

Q: Give the reported value of pIC50 for this record: `Cc1ccc(/C=C/c2cc3ccc(Br)cc3[nH]2)s1`
A: < 6.00

Q: Give the reported value of pIC50 for this record: `O=C(Nc1nc2ccc(Br)cc2[nH]1)c1cc(Br)ccc1O`
A: 7.95

Q: Give the reported value of pIC50 for this record: `O=C(O)c1c(/C=C/c2ccc(Cl)nc2)[nH]c2cc(Br)ccc12`
A: < 6.00

Q: Give the reported value of pIC50 for this record: `Clc1cc(Cl)cc(CCc2cc3ccc(Br)cc3[nH]2)c1`
A: < 4.00

Q: Give the reported value of pIC50 for this record: Clc1cccc(/C=C/c2cc3ccc(Br)cc3[nH]2)c1 [Compound 96, (E)-6-Bromo-2-(3-chlorostyryl)-1H-indole]
A: 6.00 to 7.00

Q: Give the reported value of pIC50 for this record: `Clc1cnc(/C=C/c2cc3ccc(Br)cc3[nH]2)cn1`
A: 7.00 to 7.30

Q: Give the reported value of pIC50 for this record: `Brc1ccc2cc(CSc3nc4ccccc4[nH]3)[nH]c2c1`
A: < 6.00

Q: Give the reported value of pIC50 for this record: `COc1ccc(C#Cc2cc3ccc(Br)cc3[nH]2)cn1`
A: < 6.00

Q: Give the reported value of pIC50 for this record: `Cc1csc(/C=C/c2cc3ccc(Br)cc3[nH]2)n1`
A: < 6.00

Q: Give the reported value of pIC50 for this record: `COC(=O)c1c(C#Cc2ncc(Cl)cn2)[nH]c2cc(Br)ccc12`
A: > 7.30

Q: Give the reported value of pIC50 for this record: Brc1ccc2cc(/C=C/c3ccccc3)[nH]c2c1 [Compound 36a, (E)-6-bromo-2-styryl-1H-indole]
A: 7.60

Q: Give the reported value of pIC50 for this record: `Cc1c(/C=C/c2ccc(Cl)cc2)[nH]c2cc(Br)ccc12`
A: > 7.30

Q: Give the reported value of pIC50 for this record: `Cn1c(-c2cc3ccccc3s2)nc2ccc(Br)cc21`
A: 6.00 to 7.00

Q: Give the reported value of pIC50 for this record: Brc1ccc(/C=C/c2cc3ccc(Br)cc3[nH]2)cc1 [Compound 36b, (E)-6-bromo-2-(4-bromostyryl)-1H-indole]
A: 9.00

Q: Give the reported value of pIC50 for this record: `COC(=O)c1c(NCc2cn3ccccc3n2)[nH]c2cc(Br)ccc12`
A: < 6.00
